Each entry below carries its measured Ki, system: Apoptosis regulator Bcl-2 (Homo sapiens, UniProt P10415).
Sequence (P10415 whole entry): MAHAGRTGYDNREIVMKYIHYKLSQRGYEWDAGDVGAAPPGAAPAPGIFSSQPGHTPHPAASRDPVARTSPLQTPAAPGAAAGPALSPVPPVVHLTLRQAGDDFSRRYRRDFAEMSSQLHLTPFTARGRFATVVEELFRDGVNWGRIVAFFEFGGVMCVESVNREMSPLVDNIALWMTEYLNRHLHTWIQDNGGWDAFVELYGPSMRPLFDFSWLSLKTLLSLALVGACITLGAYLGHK
measured attribute: Ki (nM)

1. CCCC[C@H]1C(=O)O[C@H](C)[C@H](NC(=O)c2cccc(NC=O)c2O)C(=O)O[C@@H](C)[C@@H]1OC(=O)CC(C)C [ANTIMYCIN A3]    832
2. O=C(O[C@@H]1Cc2c(O)cc(O)cc2O[C@@H]1c1ccc(O)c(O)c1)c1cc(O)c(O)c(O)c1 [EPICATECHIN GALLATE]    229

* * *

pKi: −log10 of the molar value.
List of pKi tested on Apoptosis regulator Bcl-2 (Homo sapiens).
measured attribute: pKi

1. O=C(O[C@@H]1Cc2c(O)cc(O)cc2O[C@@H]1c1cc(O)c(O)c(O)c1)c1cc(O)c(O)c(O)c1 [EPIGALOCATECHIN GALLATE]    6.63
2. COC(=O)NC(CCSC)C(=O)Oc1ccc(Nc2nc3c(s2)C(=O)c2ccccc2C3=O)cc1 (centres undefined)    5.89
